The origin of these recorded values is patent US10144715B2.

Molecular target: Gal4 DNA binding domain fused to the LBD of LXRα in HEK293 cells (Homo sapiens (Human))
Sequence (Q13133 209-447): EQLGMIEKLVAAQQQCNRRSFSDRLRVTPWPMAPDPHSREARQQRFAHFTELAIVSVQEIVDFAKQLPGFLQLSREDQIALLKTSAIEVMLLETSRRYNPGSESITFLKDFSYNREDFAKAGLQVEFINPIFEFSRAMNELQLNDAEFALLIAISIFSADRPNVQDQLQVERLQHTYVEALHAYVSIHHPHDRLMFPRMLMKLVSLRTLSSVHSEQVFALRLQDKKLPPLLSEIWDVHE
Assay: LXR luciferase transcriptional reporter gene assay, antagonist mode (200 nM T0901317), LXRα
Type: cell-based

compound | Cell LXRα efficacy
CC(C)[C@@H]1CN(c2ccc(F)c(S(C)(=O)=O)c2)CCN1c1ncc(CN(C)C(C)(C)C)c(C(F)(F)F)n1 | 6215 (98) %
CS(=O)(=O)c1cccc(N2CCN(C[C@@H]3C[C@@H]4[C@H](C3)C4(F)F)[C@@H](c3ccccc3)C2)c1 (single isomer, unassigned) | 7360 (100) %
CC(C)[C@@H]1CN(c2ccc(F)c(S(C)(=O)=O)c2)CCN1c1ncc(C(N)=O)c(C(F)(F)F)n1 | 3715 (97) %
CS(=O)(=O)c1cccc(N2CCN(CC3CCC(O)(C(F)(F)F)CC3)[C@@H](c3ccccc3)C2)c1 (stereo partly drawn) | 3946 (105) %
CCOC(=O)CN(C)C(=O)c1cnc(N2CCN(c3ccc(F)c(S(C)(=O)=O)c3)C[C@H]2C(C)C)nc1C(F)(F)F | 1530 (99) %
CS(=O)(=O)c1cccc(N2CCN(C[C@@H]3CCC[C@H](C(F)(F)F)C3)[C@@H](c3ccc(F)cc3)C2)c1 (single isomer, unassigned) | 421 (83) %

###

Target: Gal4 DNA binding domain fused to the LBD of LXRβ in HEK293 cells (Homo sapiens (Human), UniProt P55055)
Sequence (P55055 222-460 limits assumed): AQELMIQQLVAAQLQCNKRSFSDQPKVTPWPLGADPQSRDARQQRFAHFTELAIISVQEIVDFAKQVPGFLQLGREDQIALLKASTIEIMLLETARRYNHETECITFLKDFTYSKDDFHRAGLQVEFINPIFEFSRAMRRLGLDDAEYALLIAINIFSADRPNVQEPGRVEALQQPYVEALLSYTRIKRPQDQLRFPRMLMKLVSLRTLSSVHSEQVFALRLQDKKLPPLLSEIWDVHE
Assay: cell-based
Settings: Biological Test Example 2, agonist mode
quantity.name: Cell LXRβ efficacy (%)

compound | quantity.name | u | meas.value
CS(=O)(=O)c1cc(N2CCN(C[C@H]3CC[C@@H](C(F)(F)F)CC3)[C@H](c3ccccc3)C2)ccc1C#N (single isomer, unassigned) | Cell LXRβ efficacy | % | 11
CS(=O)(=O)c1cc(N2CCN(C[C@H]3CC[C@@H](C(F)(F)F)CC3)[C@@H](c3ccc(F)cc3)C2)ccc1F | Cell LXRβ efficacy | % | 31
CS(=O)(=O)c1cccc(N2CCN(C[C@H]3CC[C@]4(CC3)CC4(F)F)[C@@H](c3ccccc3)C2)c1 (single isomer, unassigned) | Cell LXRβ efficacy | % | 25
CS(=O)(=O)c1cccc(N2CCN(C[C@H]3CC[C@@]4(CC3)CC4(F)F)[C@@H](c3ccccc3)C2)c1 (single isomer, unassigned) | Cell LXRβ efficacy | % | 43
CS(=O)(=O)c1cccc(N2CCN(C[C@H]3C[C@@H]4[C@H](C3)C4(F)F)[C@H](c3ccccc3)C2)c1 (single isomer, unassigned) | Cell LXRβ efficacy | % | 48
CS(=O)(=O)c1cccc(N2CCN(C[C@@H]3C[C@@H]4[C@H](C3)C4(F)F)[C@@H](c3ccccc3)C2)c1 (single isomer, unassigned) | Cell LXRβ efficacy | % | 20
COCc1ccc(N2CCN(C[C@H]3CC[C@H](C(F)(F)F)CC3)[C@@H](c3ccccc3)C2)cc1S(C)(=O)=O | Cell LXRβ efficacy | % | 12

###

Target: Gal4 DNA binding domain fused to the LBD of LXRα in HEK293 cells (Homo sapiens (Human))
Assay: LXR luciferase transcriptional reporter gene assay, antagonist mode (200 nM T0901317), LXRα
Type: cell-based
Settings: read-out: Cell LXRα IC50
pIC50: −log10 of the molar value.

compound | relation.symbol | pIC50
CC(O)c1cnc(N2CCN(c3ccc(F)c(S(C)(=O)=O)c3)C[C@H]2C(C)C)nc1C(F)(F)F (mixture of isomers) | = | 5.09
CC1(C)CCC(CN2CCN(c3cccc(S(C)(=O)=O)c3)C[C@@H]2c2ccccc2)CC1 | = | 5.19
Cc1ccc(CN2CCN(c3cccc(S(C)(=O)=O)c3)C[C@@H]2c2ccccc2)cc1 (single isomer, unassigned) | = | 6.02
CS(=O)(=O)c1cccc(N2CCN(C[C@H]3CC[C@@](C)(O)CC3)[C@@H](c3ccccc3)C2)c1 (single isomer, unassigned) | = | 5.93
COCCN(C)C(=O)c1cnc(N2CCN(c3ccc(F)c(S(C)(=O)=O)c3)C[C@H]2C(C)C)nc1C(F)(F)F | = | 5.94
CC(C)[C@@H]1CN(c2ccc(F)c(S(C)(=O)=O)c2)CCN1c1ccc(C(F)(F)F)cn1 | < | 5.00
CS(=O)(=O)c1cc(N2CCN(C[C@H]3CC[C@@H](C(F)(F)F)CC3)[C@@H](c3ccccc3)C2)ccc1C(N)=O (single isomer, unassigned) | = | 5.01
CC(C)[C@@H]1CN(c2ccc(F)c(S(C)(=O)=O)c2)CCN1c1ncc(Cc2ccc(C(C)(C)O)cc2)c(C(F)(F)F)n1 | = | 6.35
Cc1ccc(C2CC2)nc1N1CCN(c2cccc(S(C)(=O)=O)c2)C[C@H]1C(C)C | = | 5.61
CS(=O)(=O)c1cccc(N2CCN(C[C@H]3C[C@@H]4[C@H](C3)C4(F)F)[C@@H](c3ccccc3)C2)c1 | = | 5.37
CC(C)[C@H]1CC[C@H](CN2CCN(c3cccc(S(C)(=O)=O)c3)C[C@@H]2c2ccccc2)CC1 (single isomer, unassigned) | < | 5.00
NS(=O)(=O)c1cccc(N2CCN(C[C@H]3CC[C@@H](C(F)(F)F)CC3)[C@@H](c3ccccc3)C2)c1 (single isomer, unassigned) | = | 5.12
CS(=O)(=O)c1cccc(N2CCN(C[C@H]3CC[C@H](C(F)(F)F)CC3)[C@@H](c3ccccc3)C2)c1 (single isomer, unassigned) | = | 5.28
